Reference source: patent US12649733B2

biological target: BCLXL (Homo sapiens, UniProt Q07817, V10N/V9A); test: Fluorescence polarisation assay (PUMA-based probe displacement); further: 20 nM protein, 10 nM fluorescent probe
Sequence (Q07817 with tags, fused parts or gaps V9A/V10N): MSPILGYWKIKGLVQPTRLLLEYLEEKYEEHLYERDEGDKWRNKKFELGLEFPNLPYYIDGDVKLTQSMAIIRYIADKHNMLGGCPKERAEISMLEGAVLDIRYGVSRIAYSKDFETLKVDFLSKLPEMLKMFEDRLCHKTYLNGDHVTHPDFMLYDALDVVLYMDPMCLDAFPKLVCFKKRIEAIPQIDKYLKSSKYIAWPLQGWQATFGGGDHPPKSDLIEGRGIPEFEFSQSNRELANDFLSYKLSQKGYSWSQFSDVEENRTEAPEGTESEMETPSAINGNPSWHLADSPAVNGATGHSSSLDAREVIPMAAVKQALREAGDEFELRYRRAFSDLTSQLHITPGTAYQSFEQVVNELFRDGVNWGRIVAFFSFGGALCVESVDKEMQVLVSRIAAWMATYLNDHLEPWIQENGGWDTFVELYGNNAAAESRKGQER
This listing pairs molecules with measured pKi.
Friendly reminder that pKi comes from taking -log10 of the concentration in mol/L.

{"columns": ["Smiles", "Assay Target", "pKi"],
 "data": [
  ["Cc1cc(N(C)c2nc(C(=O)O)c(C3CCC3)s2)nnc1Nc1nc2ccccc2s1", "BCLXL (Homo sapiens, UniProt Q07817, V10N/V9A)", 6.96]
]}

Recorded pKi of COCCCN(c1cc(C)c(Nc2nc3ccccc3s2)nn1)c1nc(C(=O)O)c(-c2cnn(CC34CC5CC(CC(C5)C3)C4)c2C)s1 , please.
7.05

Try this molecule too: Cc1c(Nc2nc3ccccc3s2)nnc(Nc2nc(C(=O)O)cs2)c1C(C)C
7.06

Try this molecule too: O=C(O)c1cccc(Nc2nnc(Nc3nc4ccccc4s3)c3c2CCC3)n1
6.00

Try this molecule too: Cc1c(Nc2nc(C(=O)O)cs2)nnc(Nc2nc3ccccc3s2)c1CO
6.51

Try this molecule too: Cc1cc(N(C)c2nc(C(=O)O)c(C3CNC3)s2)nnc1Nc1nc2ccccc2s1
6.19
